These data points were gathered from ChEMBL document CHEMBL2029273.

Assay: Inhibition of beta-lactamase CTX-M using nitrocefin as substrate
Conditions: read-out: Ki
endpoint.name: log10 of Ki (log10 of the value in µM)
In plain terms, each number is the log10 of measured Ki in µM.

Asked: Fill in the blank: the reported log10 of Ki of O=C(Nc1cccc(-c2nnn[nH]2)c1)c1cc(F)cc2[nH]cnc12 is ____.
Given back: 0.43

Asked: Fill in the blank: the reported log10 of Ki of O=C(Nc1cccc(-c2nnn[nH]2)c1)c1cc(C(F)(F)F)cc2[nH]cnc12 is ____.
Given back: -1.05

Asked: Fill in the blank: the reported log10 of Ki of COC(=O)c1cccc(C(=O)Nc2cccc(-c3nnn[nH]3)c2)c1 is ____.
Given back: 0.84

Asked: Fill in the blank: the reported log10 of Ki of COc1cccc(C(=O)Nc2cccc(-c3nnn[nH]3)c2)c1 is ____.
Given back: 1.23

Asked: Fill in the blank: the reported log10 of Ki of O=C(Nc1cccc(-c2nnn[nH]2)c1)c1cccc(Cl)c1 is ____.
Given back: 0.79

Asked: Fill in the blank: the reported log10 of Ki of O=C(Nc1cccc(-c2nnn[nH]2)c1)c1cccc2[nH]ccc12 is ____.
Given back: 0.82

Asked: Fill in the blank: the reported log10 of Ki of O=C(Nc1cccc(-c2nnn[nH]2)c1)c1cc(O)cc(Br)c1 is ____.
Given back: -0.24

Asked: Fill in the blank: the reported log10 of Ki of N#Cc1cc(Br)cc(C(=O)Nc2cccc(-c3nnn[nH]3)c2)c1 is ____.
Given back: 1.53

Asked: Fill in the blank: the reported log10 of Ki of O=C(Nc1cccc(-c2nnn[nH]2)c1)c1cc(O)cc(C(F)(F)F)c1 is ____.
Given back: -0.20

Asked: Fill in the blank: the reported log10 of Ki of Nc1cc(C(=O)Nc2cccc(-c3nnn[nH]3)c2)cc(C(F)(F)F)c1 is ____.
Given back: 0.00

Asked: Fill in the blank: the reported log10 of Ki of O=C(Nc1cccc(-c2nnn[nH]2)c1)c1cccc(C2CC2)c1 is ____.
Given back: 0.49
